assay: Cytotoxicity against human HuH7 cells assessed as cell viability at 500 uM after 24 hrs by MTT assay relative to control; type: cell-based, Huh-7
experimental endpoint: viability at 24 h, 500 µM (%)
Give a bare numeral; the unit % is implied.

Here's what some known entries look like.
[[record]]
molecule = "C[C@H](CCC(=O)NCC(=O)O)[C@H]1CC[C@H]2[C@@H]3CC[C@@H]4C[C@H](O)CC[C@]4(C)[C@H]3C[C@H](O)[C@]12C [GLYCODEOXYCHOLATE]"
value_reported = 105

[[record]]
molecule = "C[C@H](CCC(=O)O)[C@H]1CC[C@H]2[C@@H]3CC[C@@H]4C[C@H](O)CC[C@]4(C)[C@H]3CC(=O)[C@]12C"
value_reported = 80.6

[[record]]
molecule = "COC(=O)CC[C@@H](C)[C@H]1CC[C@H]2[C@@H]3CC[C@@H]4C[C@H](O)CC[C@]4(C)[C@H]3C[C@H](O)[C@]12C [METHYL DEOXYCHOLATE]"
value_reported = 48.8


Lookup: Please give the measured viability at 24 h, 500 µM for this molecule: `C[C@H](CCC(=O)O)[C@H]1CC[C@H]2[C@@H]3[C@@H](O)C[C@@H]4C[C@@H](N=[N+]=[N-])CC[C@]4(C)[C@H]3CC[C@]12C`
Found: 101

Lookup: Recorded viability at 24 h, 500 µM of `C[C@H](CCC(=O)NCC(=O)O)[C@H]1CC[C@H]2[C@@H]3[C@@H](O)C[C@@H]4C[C@H](O)CC[C@]4(C)[C@H]3CC[C@]12C` , please.
Found: 104

---

assay: Cytotoxicity against human HET-1A cells assessed as cell viability at 500 uM after 24 hrs by MTT assay relative to control; type: cell-based
Note to self: use T only for viability at 24 h, 500 µM readings below 40%; a reading exactly at 40% still gets F.

The following molecules have reported results that may help.
[[record]]
molecule = "COC(=O)CC[C@@H](C)[C@H]1CC[C@H]2[C@@H]3[C@@H](O)C[C@@H]4C[C@H](O)CC[C@]4(C)[C@H]3CC[C@]12C"
classification = "F"

[[record]]
molecule = "C[C@H](CCC(=O)O)[C@H]1CC[C@H]2[C@@H]3[C@@H](O)C[C@@H]4C[C@H](O)CC[C@]4(C)[C@H]3C[C@H](O)[C@]12C"
classification = "F"

[[record]]
molecule = "C[C@H](C(=O)O)[C@H]1CC[C@H]2[C@@H]3[C@@H](O)C[C@@H]4C[C@H](O)CC[C@]4(C)[C@H]3CC[C@]12C"
classification = "F"

[[record]]
molecule = "C[C@H](CCC(=O)O)[C@H]1CC[C@H]2[C@@H]3CC[C@@H]4C[C@@H](N=[N+]=[N-])CC[C@]4(C)[C@H]3C[C@H](O)[C@]12C"
classification = "T"

[[record]]
molecule = "C[C@H](CCC(=O)O)[C@H]1CC[C@H]2[C@@H]3CC[C@@H]4C[C@H](O)CC[C@]4(C)[C@H]3C[C@@H](O)[C@]12C [LAGODEOXYCHOLATE]"
classification = "F"

[[record]]
molecule = "C[C@H](CCC(=O)O)[C@H]1CC[C@H]2[C@@H]3[C@H](O)C[C@@H]4C[C@H](O)CC[C@]4(C)[C@H]3CC[C@]12C [CHENODIOL]"
classification = "F"

[[record]]
molecule = "C[C@H](CCC(=O)O)[C@H]1CC[C@H]2[C@@H]3[C@@H](O)C[C@@H]4C[C@@H](N=[N+]=[N-])CC[C@]4(C)[C@H]3CC[C@]12C"
classification = "T"

[[record]]
molecule = "C[C@H](CCC#N)[C@H]1CC[C@H]2[C@@H]3[C@@H](O)C[C@@H]4C[C@H](O)CC[C@]4(C)[C@H]3CC[C@]12C"
classification = "F"

[[record]]
molecule = "C[C@H](CCC(=O)O)[C@H]1CC[C@H]2[C@@H]3[C@@H](N=[N+]=[N-])C[C@@H]4C[C@H](O)CC[C@]4(C)[C@H]3CC[C@]12C"
classification = "T"

[[record]]
molecule = "C[C@H](CCC(=O)O)[C@H]1CC[C@H]2[C@@H]3C(=O)C[C@@H]4CC(=O)CC[C@]4(C)[C@H]3CC(=O)[C@]12C [DEHYDROCHOLIC ACID]"
classification = "F"


Attention now shifts to the item below.
Lookup: Dear reviewer, please state whether C[C@H](CCC(=O)O)[C@H]1CC[C@H]2[C@@H]3[C@H](O)C[C@@H]4C[C@H](O)CC[C@]4(C)[C@H]3C[C@H](O)[C@]12C [CHOLIC ACID] has viability at 24 h, 500 µM strictly beneath 40%.
Found: F

Where do the numbers come from? From ChEMBL document CHEMBL1250512.
